This section presents compounds with their documented log10 EC50 values.
- Study target: murine Nurr1 receptor (Mus musculus, UniProt Q06219)
- Construct: a cell line (N2A) endogenously expressing the murine Nurr1 receptor
- Sequence (Q06219 whole entry): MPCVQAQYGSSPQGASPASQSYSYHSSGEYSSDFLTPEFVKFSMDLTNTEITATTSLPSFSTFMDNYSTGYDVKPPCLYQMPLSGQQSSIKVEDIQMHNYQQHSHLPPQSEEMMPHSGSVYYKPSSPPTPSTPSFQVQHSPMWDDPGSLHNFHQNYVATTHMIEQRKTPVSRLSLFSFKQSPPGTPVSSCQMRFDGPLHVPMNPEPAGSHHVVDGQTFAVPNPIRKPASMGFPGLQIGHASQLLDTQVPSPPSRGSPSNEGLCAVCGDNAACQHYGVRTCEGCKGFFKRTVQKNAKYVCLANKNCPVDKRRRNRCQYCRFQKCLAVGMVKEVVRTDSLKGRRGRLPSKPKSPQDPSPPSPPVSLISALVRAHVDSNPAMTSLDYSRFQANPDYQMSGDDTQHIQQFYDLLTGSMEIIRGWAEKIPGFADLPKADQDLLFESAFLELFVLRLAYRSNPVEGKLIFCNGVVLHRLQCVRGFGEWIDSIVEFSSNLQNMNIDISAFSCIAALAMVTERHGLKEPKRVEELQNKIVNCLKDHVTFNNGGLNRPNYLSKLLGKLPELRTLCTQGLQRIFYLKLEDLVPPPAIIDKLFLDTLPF
- Experiment: In vitro activity on N2A cells (Neuro-2A stably transfected with 8NBRE-luciferase reporter)
- Conditions: N2A-8NBRE cells, 24 hours incubation with product
For clarity, the numbers are log10 values of EC50 expressed in nM.

// known answers, use as guide
Input: Recorded log10 EC50 for `O=C(Nc1ccccn1)c1cn2cc(-c3c[nH]cn3)ccc2n1` , please?
Output: 0.18

Input: Recorded log10 EC50 for `O=C(Nc1nncs1)c1cn2cc(-c3cc[nH]n3)ccc2n1` , please?
Output: 0.72

Input: Recorded log10 EC50 for `O=C(Nc1nccs1)c1cn2cc(-c3ccccn3)ccc2n1` , please?
Output: -0.10

Input: Recorded log10 EC50 for `Nc1cccc(-c2ccc3nc(C(=O)Nc4ccccn4)cn3c2)n1` , please?
Output: 1.20

Input: Recorded log10 EC50 for `O=C(Nc1ccon1)c1cn2cc(-c3ccc(CO)o3)ccc2n1` , please?
Output: 0.30

// switching to the query compound
Input: Recorded log10 EC50 for `O=C(Nc1nncs1)c1cn2cc(-c3cc[nH]c3)ccc2n1` , please?
Output: 0.18

* * *

- Study target: murine Nurr1 receptor (Mus musculus, UniProt Q06219)
- Construct: a cell line (N2A) endogenously expressing the murine Nurr1 receptor
- Experiment: In vitro activity on N2A cells (Neuro-2A stably transfected with 8NBRE-luciferase reporter)
- Conditions: N2A-8NBRE cells, 24 hours incubation with product
Assay endpoint: EC50 (nM)
Express the result in nM but write the number alone.

Input: Kindly state the measured EC50 obtained for O=C(Nc1nccs1)c1cn2cc(-c3cc[nH]n3)ccc2n1 [Compound 56] with murine Nurr1 receptor (Mus musculus, UniProt Q06219).
Output: 1

---
Input: Kindly state the measured EC50 obtained for O=C(Nc1cc[nH]n1)c1cn2cc(-c3ccccn3)ccc2n1 [Compound 10] with murine Nurr1 receptor (Mus musculus, UniProt Q06219).
Output: 21

Input: Kindly state the measured EC50 obtained for O=C(Nc1cccc(F)n1)c1cn2cc(-c3ccoc3)ccc2n1 [Compound 36] with murine Nurr1 receptor (Mus musculus, UniProt Q06219).
Output: 0.4
